pKi overview
- assay_target: Somatostatin receptor type 5 (Homo sapiens, UniProt P35346)
- Sequence (P35346 whole entry): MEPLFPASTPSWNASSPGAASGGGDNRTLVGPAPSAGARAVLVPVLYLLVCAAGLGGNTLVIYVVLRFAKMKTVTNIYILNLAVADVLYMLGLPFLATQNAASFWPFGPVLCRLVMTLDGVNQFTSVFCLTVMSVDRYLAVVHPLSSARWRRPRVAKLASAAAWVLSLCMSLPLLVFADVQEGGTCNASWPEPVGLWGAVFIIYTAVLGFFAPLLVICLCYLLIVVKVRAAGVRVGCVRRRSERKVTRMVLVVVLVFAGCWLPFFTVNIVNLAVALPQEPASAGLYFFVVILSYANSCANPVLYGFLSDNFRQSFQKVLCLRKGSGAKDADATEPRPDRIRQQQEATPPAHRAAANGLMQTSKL
- measurement_description: Inhibitory constant on human Somatostatin receptor type 5
pKi: −log10 of the molar value.

compound: CC(C)(C(=O)NCCN)c1cn2c(n1)C(Cc1c[nH]c3ccccc13)N=C(Cc1ccccc1)C2 (configuration not stated)
pKi: < 6.00

Next compound, pKi to be filled in.
Q: What value of pKi has been recorded for this entry: `c1ccc(Cc2nc(-c3ccccc3)cn3cc(-c4ccccc4)nc23)cc1`
Ans: < 5.30

====

Measured pKi values are reported for all entries that follow.
- assay_target: Somatostatin receptor type 3 (Homo sapiens)
- Sequence (P32745 whole entry): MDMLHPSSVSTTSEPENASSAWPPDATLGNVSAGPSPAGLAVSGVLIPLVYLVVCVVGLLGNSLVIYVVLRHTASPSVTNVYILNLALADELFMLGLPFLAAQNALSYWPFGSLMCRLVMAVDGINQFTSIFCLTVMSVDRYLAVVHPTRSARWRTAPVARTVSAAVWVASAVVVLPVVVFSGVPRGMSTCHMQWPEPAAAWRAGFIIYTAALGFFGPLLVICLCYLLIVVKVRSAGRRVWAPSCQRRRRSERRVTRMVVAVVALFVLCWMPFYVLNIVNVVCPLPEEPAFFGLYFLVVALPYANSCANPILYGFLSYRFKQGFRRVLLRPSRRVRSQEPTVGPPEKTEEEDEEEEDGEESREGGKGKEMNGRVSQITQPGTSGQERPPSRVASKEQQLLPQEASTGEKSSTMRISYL
- measurement_description: Inhibitory constant on human Somatostatin receptor type 3
pKi: −log10 of the molar value.

Q: Which measured pKi value corresponds to `c1ccc(Cc2nc(-c3ccccc3)cn3cc(-c4ccccc4)nc23)cc1` ?
Ans: < 5.30

Q: What pKi value was documented for this molecule, CC(C)(C(=O)NCCN)c1cn2c(n1)C(Cc1c[nH]c3ccccc13)N=C(Cc1ccccc1)C2 (configuration not stated) ?
Ans: < 5.00
